Assignment: determine reported caspase activation for the given molecules.
# Test method notes: caspase activation in Bax/Bak-null MEFs, dose response, counter-screen for A1 inhibitor project, cell-based, mouse embryonic fibroblasts, luminescence, dry powder, set 3 (AID 504403)
# Test parameters: Bax/Bak-/- MEF caspase activation, CaspaseGlo luminescence, 3 h; at 35 µM (top of the series)
Answers are plain numbers, in %.

Record excerpt, results attached:
COc1nc2ccccc2c(Sc2ccc(C)cc2)c1[N+](=O)[O-] = 0.017
COc1c([N+](=O)[O-])c(=O)n(C)c2ccccc12 = 0.061
Cn1c(=O)c(Sc2ccccn2)c(Sc2ccccn2)c2ccccc21 = 0.166
CCn1c(=O)c([N+](=O)[O-])c(Cl)c2ccccc21 = 1.21
C/C(=N\Nc1nc(N2CCCCC2)nc(N2CCCCC2)n1)c1ccc(F)cc1 = -0.284

Give caspase activation for each listed item.
1. COCCn1c(=O)c([N+](=O)[O-])c(Sc2ccc(C)cc2)c2ccccc21
2. O=c1c([N+](=O)[O-])c(Cl)c2ccccc2n1Cc1ccccc1
3. Cc1ccc(Sc2c([N+](=O)[O-])c(=O)n(Cc3ccccc3)c3ccccc23)cc1

[0.682, -0.005, 1.91]

Give caspase activation for each listed item.
1. CCn1c(=O)c(Sc2ccc(C)cc2)c(Sc2ccc(C)cc2)c2ccccc21
2. COc1ccc(N2CCN(c3nc(NCCc4ccc(OC)c(OC)c4)nc(N4CCOCC4)n3)CC2)cc1
3. COCCn1c(=O)c([N+](=O)[O-])c(Cl)c2ccccc21

1. 0.078
2. 0.143
3. 0.693

----------
Assignment: determine reported caspase activation for the given compounds.
# Test method notes: caspase activation in Bax/Bak-null MEFs, dose response, counter-screen for A1 inhibitor project, cell-based, mouse embryonic fibroblasts, luminescence, dry powder, set 3 (AID 504403)
# Test parameters: Bax/Bak-/- MEF caspase activation, CaspaseGlo luminescence, 3 h; measured here: test 2 replicate, at 35 µM, stronger effect = higher value unless noted
Give bare numbers, in %.

Give caspase activation for each listed item.
1. CCn1c(=O)c([N+](=O)[O-])c(Sc2ccc(C)cc2)c2ccccc21
2. O=c1[nH]c2ccccc2c(O)c1[N+](=O)[O-]
3. Cn1c(=O)c(Sc2ccccn2)c(Sc2ccccn2)c2ccccc21
4. O=c1[nH]c2ccccc2c(Cl)c1[N+](=O)[O-]
5. CCn1c(=O)c(Sc2ccc(C)cc2)c(Sc2ccc(C)cc2)c2ccccc21
6. Cn1c(=O)c([N+](=O)[O-])c(Sc2ccccn2)c2ccccc21
7. COc1nc2ccccc2c(Sc2ccc(C)cc2)c1[N+](=O)[O-]

-0.559
-0.232
-0.337
0.47
-0.17
0.033
-0.171

----------
Assignment: determine reported caspase activation for the given compounds.
# Test method notes: caspase activation in Bax/Bak-null MEFs, dose response, counter-screen for A1 inhibitor project, cell-based, mouse embryonic fibroblasts, luminescence, dry powder, set 3 (AID 504403)
# Test parameters: Bax/Bak-/- MEF caspase activation, CaspaseGlo luminescence, 3 h; measured here: test 2 replicate, at 35 µM, stronger effect = higher value unless noted
Give bare numbers, in %.

Record excerpt, results attached:
COCCn1c(=O)c([N+](=O)[O-])c(Cl)c2ccccc21 = -0.136
Cn1c(=O)c([N+](=O)[O-])c(S(C)(=O)=O)c2ccccc21 = -0.421
COc1ccc(N2CCN(c3nc(NCCc4ccc(OC)c(OC)c4)nc(N4CCOCC4)n3)CC2)cc1 = 0.46
COc1ccc(CCNc2nc(N3CCCC3)nc(N3CCCC3)n2)cc1OC = 0.515
Cc1ccc(Sc2c(Sc3ccc(C)cc3)c3ccccc3n(Cc3ccccc3)c2=O)cc1 = -0.616

Give caspase activation for each listed item.
1. Cn1c(=O)c([N+](=O)[O-])c(Cl)c2ccccc21
2. COc1nc2ccccc2c(Cl)c1[N+](=O)[O-]
3. Cc1ccc(Sc2c([N+](=O)[O-])c(=O)n(Cc3ccccc3)c3ccccc23)cc1

-0.494
0.222
-0.307

Give caspase activation for each listed item.
1. O=c1c([N+](=O)[O-])c(Cl)c2ccccc2n1Cc1ccccc1
2. O=C(COc1ccc(Cl)cc1Cl)NNc1nc(N2CCOCC2)nc(N2CCOCC2)n1

[3.16, 0.018]
